Where do these numbers come from? They come from PubChem BioAssay AID651635.

- testProtocol: Viability Counterscreen for Primary qHTS for Inhibitors of ATXN expression; also: nearly all actives have a fitted effect of over 40% in size
- studyConditions: S2 cells (HEK-293 line with an ATXN2-luciferase reporter) viability, CellTiter-Fluor protease fluorescence, 24 h; series mostly up to 56.7 µM
Out of some 400,000 compounds screened, about 1,900 (0.47%) were called active. Another 14% or so got no clear call; they are omitted. Calls follow the shape of the dose curve; as a rule, active = well fitted cell-killing curve with a large enough effect; inconclusive = small, poorly fitted or top-dose-only effect, or effect the other way; inactive = no such curve, though single readings can be large or run the other way. The entries come from a sample that favours actives as a whole.
Select the correct class. Options are active, inactive and nothing else.

# molecule, discreteLabel
rows = [
    ("Cc1cccc(N2CCN(c3ccc(NC(=O)/C=C\\C(=O)O)cc3)CC2)c1", "inactive"),
]

Query: Check the results log: what was the call for "CC(C)C[C@H]1CNC(=O)C(=O)N1C[C@@H]1CCCN1C[C@H](Cc1ccccc1)N1C[C@H](CC(C)C)N(CC2CCCCCC2)C(=O)C1=O" ?
Response: inactive

Query: Check the results log: what was the call for "CN(C)CCN1CCN(c2cc(-c3cccc(Cl)c3)nc3ccnn23)CC1" ?
Response: inactive

Query: Check the results log: what was the call for "COc1cccc(NC(=O)Nc2ccc(F)cc2)c1" ?
Response: inactive

Query: Check the results log: what was the call for Cc1ccc2c(C)nc(N3CCCC(C(=O)NC(C)(C)CO)C3)nc2c1 (stereo not drawn) ?
Response: inactive

Query: Check the results log: what was the call for COc1ccc(C(N)c2csc(NC(=O)Nc3cccc(C(F)(F)F)c3)n2)cc1 (stereo not drawn) ?
Response: active

Query: Check the results log: what was the call for "COCCCN1CCC(NC(=O)c2cc(Cl)c(N)c3c2OCC3)CC1" ?
Response: inactive

Query: Check the results log: what was the call for "C=CC(=O)Nc1ccc(Nc2ccnc(Nc3ccc(N4CCN(C)CC4)cc3)n2)cc1" ?
Response: active

Query: Check the results log: what was the call for COCC1CCCN(Cc2ccc3c(c2)CN(C(=O)c2ccnn2C)CCO3)C1 (stereo not drawn) ?
Response: inactive

Query: Check the results log: what was the call for "CN1CCN(c2ccc(NC(=O)c3cc(Cl)c4c(c3)OCCO4)cc2)CC1" ?
Response: inactive

Query: Check the results log: what was the call for "CCN1CCN(C(=O)N[C@@H](C(=O)N[C@@H]2C(=O)N3[C@@H]2SC(C)(C)[C@H]3C(=O)O)c2ccccc2)C(=O)C1=O" ?
Response: inactive

Query: Check the results log: what was the call for "CC[C@H](C)CCCCC(=O)N[C@@H](CCN)C(=O)N[C@H](C(=O)N[C@@H](CCN)C(=O)N[C@H]1CCNC(=O)[C@H]([C@@H](C)O)NC(=O)[C@H](CCN)NC(=O)[C@H](CCN)NC(=O)[C@H](CC(C)C)NC(=O)[C@@H](CC(C)C)NC(=O)[C@H](CCN)NC1=O)[C@@H](C)O" ?
Response: inactive

Query: Check the results log: what was the call for "C=CC[C@H](CC(=O)OC(C)(C)C)C(=O)OC[C@H]1CCCN1C(=O)[C@H](CC=C)CC(=O)N(CCO)Cc1ccccc1" ?
Response: inactive

Query: Check the results log: what was the call for "COC(=O)c1cc(Cl)c(NC(C)=O)cc1OC" ?
Response: inactive

Query: Check the results log: what was the call for "C=CC[C@@H](CC(=O)N[C@H](CO)Cc1ccccc1)C(=O)N[C@@H](COC(=O)[C@@H](CC=C)Cc1ccc(F)cc1)Cc1c[nH]c2ccccc12" ?
Response: inactive

Query: Check the results log: what was the call for "CC(C)n1cnc2c(NCc3ccccc3)cc(OCC3CCN(C)CC3)cc21" ?
Response: active

Query: Check the results log: what was the call for "O=C(Nc1ccncc1)c1ccccc1[N+](=O)[O-]" ?
Response: inactive

Query: Check the results log: what was the call for "Cc1cccc(C)c1NC(=O)c1ccc(N)cc1" ?
Response: inactive

====

- testProtocol: Viability Counterscreen for Primary qHTS for Inhibitors of ATXN expression; also: nearly all actives have a fitted effect of over 40% in size; also: potency is read from the fitted curve at half-maximal effect
- studyConditions: S2 cells (HEK-293 line with an ATXN2-luciferase reporter) viability, CellTiter-Fluor protease fluorescence, 24 h; series mostly up to 56.7 µM
Among all 400,000 compounds or so, about 1,900 (0.47%) were called active. Inconclusive results (about 14%) are left out. What follows is part of a selection rich in actives, with near analogues and random picks from the rest.
quantityMeasured: Potency

Consider the worked cases shown below.
# molecule, measuredValue
measured = [
    ("CN(C)CCNC(=O)c1ccc(-c2cn3c(-c4ccc(Oc5ccccc5)cc4)cnc3cn2)cc1", "inactive"),
    ("CCOc1ccc(-n2nc3ccc(NC(=O)c4ccc(OC)c(Cl)c4)cc3n2)cc1", "inactive"),
    ("Cc1c(C(=O)NCC2CCCN(C)C2)cnn1-c1nccc(-c2ccco2)n1 (configuration not stated)", "inactive"),
    ("O=C(NCC1Cc2cc(F)cc(-c3cnccn3)c2O1)C1COc2ccccc2O1 (configuration not stated)", "inactive"),
    ("CCCCN1C(=O)C(C)=C(C)C1OCCc1ccc(OC)c(OC)c1 (configuration not stated)", "inactive"),
]

Please look at the items below and tell me Potency for each one, in order.
1. COc1ccc(C2(Nc3cccc(F)c3)C(=O)c3ccccc3C2=O)cc1
2. COc1cccc(NC(=O)c2ccc3c(SCC(=O)O)c4c(nc3c2)CCCC4)c1
3. CCOC(=O)c1ccn(S(=O)(=O)c2ccc(C)cc2)c1-c1ccccc1
4. CCCCCc1c(Cc2ccccc2)ncn1CCc1ccccc1OC

Response:
1: inactive; 2: inactive; 3: inactive; 4: 22.4 µM (active)

====

- testProtocol: Viability Counterscreen for Primary qHTS for Inhibitors of ATXN expression; also: nearly all actives have a fitted effect of over 40% in size
- studyConditions: S2 cells (HEK-293 line with an ATXN2-luciferase reporter) viability, CellTiter-Fluor protease fluorescence, 24 h; series mostly up to 56.7 µM
Among all 400,000 compounds or so, about 1,900 (0.47%) were called active. Not shown: some 14% with an inconclusive outcome. Calls follow the shape of the dose curve; as a rule, active = well fitted cell-killing curve with a large enough effect; inconclusive = small, poorly fitted or top-dose-only effect, or effect the other way; inactive = no such curve, though single readings can be large or run the other way. Only a selection was taken, and actives are over-represented in it overall.
Select the correct class. Options are active, inactive and nothing else.

# compound, discreteLabel
records = [
    ("COC(=O)c1c(C)c(C)nc(N)c1C#N", "inactive"),
    ("O=C(CCl)Nc1cccc(CP(=O)(c2ccccc2)c2ccccc2)c1", "active"),
    ("c1ccc(CN2CCN(Cc3ccc4c(c3)CN(Cc3c[nH]c5ccccc35)CCO4)CC2)nc1", "inactive"),
    ("Cc1ccc(/C=N/NC(=O)C2=NNC(c3ccccc3)(c3ccccc3)C2)c(O)c1", "inactive"),
    ("O=C(NCCN1CCOCC1)c1cnn(-c2nccc(-c3cccs3)n2)c1C1CC1", "inactive"),
]

Query: Check the results log: what was the call for CCC1CN(CCNC(=O)c2cccc(C)n2)Cc2cc(OC)ccc2O1 (stereo not drawn) ?
Response: inactive

Query: Check the results log: what was the call for "Cc1c(C(=O)Nc2ccccn2)oc2ccc(Br)cc12" ?
Response: inactive

Query: Check the results log: what was the call for "COc1ccccc1C(=O)N[C@@H]1c2ccccc2C2(CCN(C(=O)c3csnn3)CC2)[C@H]1OC" ?
Response: inactive

Query: Check the results log: what was the call for CCC1CN(CCNC(=O)c2ccsc2)Cc2cc(OC)ccc2O1 (stereo not drawn) ?
Response: inactive

Query: Check the results log: what was the call for "O=C1/C(=C\c2ccc([N+](=O)[O-])cc2)CS(=O)(=O)C/C1=C/c1ccc([N+](=O)[O-])cc1" ?
Response: active

Query: Check the results log: what was the call for COc1ccc(C2CC(c3cccc(OC)c3)=NN2c2ccc(S(N)(=O)=O)cc2)cc1 (stereo not drawn) ?
Response: inactive

Query: Check the results log: what was the call for "COC(=O)c1nc(Cl)c(Cl)nc1N" ?
Response: active

Query: Check the results log: what was the call for "O=C(CSCc1ccccc1)Nc1ccccc1" ?
Response: inactive

====

- testProtocol: Viability Counterscreen for Primary qHTS for Inhibitors of ATXN expression; also: nearly all actives have a fitted effect of over 40% in size
- studyConditions: S2 cells (HEK-293 line with an ATXN2-luciferase reporter) viability, CellTiter-Fluor protease fluorescence, 24 h; series mostly up to 56.7 µM
The whole screen tested about 400,000 compounds, of which about 1,900 (0.47%) were called active. Roughly 14% stayed inconclusive and do not appear here. Calls come from the whole dose curve; as a rule, active = well fitted cell-killing curve with a large enough effect; inconclusive = small, poorly fitted or top-dose-only effect, or effect the other way; inactive = no such curve, though single readings can be large or run the other way. This excerpt belongs to a sample that is enriched for actives.
Select the correct class. Options are 1 = active, -1 = inactive and nothing else.

// below: answered compounds
# compound, discreteLabel
records = [
    ("O=C(c1cn(CC2CCCN(Cc3cc4ccccc4s3)C2)nn1)N1CCCC1 (stereo not given)", -1),
    ("Cc1cc(NS(=O)(=O)c2ccc(NC(=O)c3cccnc3)cc2)nc(C)n1", -1),
    ("COc1ccccc1NC(=O)c1oc2ccccc2c1NC(=O)COc1ccccc1OC", -1),
    ("CCc1nc2c(OCCOc3ccccc3)cccn2c1N(C=O)Cc1ccc(OC)cc1", -1),
]

Field: next compound
Query: Check the results log: what was the call for "CCOC(=O)[C@]12CCCC=C1N(Cc1cccc3ccccc13)C(=O)[C@H](CC(=O)NCC13CC4CC(CC(C4)C1)C3)C2" ?
Response: -1

====

- testProtocol: Viability Counterscreen for Primary qHTS for Inhibitors of ATXN expression; also: nearly all actives have a fitted effect of over 40% in size
- studyConditions: S2 cells (HEK-293 line with an ATXN2-luciferase reporter) viability, CellTiter-Fluor protease fluorescence, 24 h; series mostly up to 56.7 µM
The whole screen tested about 400,000 compounds, of which about 1,900 (0.47%) were called active. Not shown: some 14% with an inconclusive outcome. Calls follow the shape of the dose curve; as a rule, active = well fitted cell-killing curve with a large enough effect; inconclusive = small, poorly fitted or top-dose-only effect, or effect the other way; inactive = no such curve, though single readings can be large or run the other way. The sample holds actives, similar compounds and a random draw of the others, so the mix is not that of the screen.
Select the correct class. Options are YES (active), NO (inactive) and nothing else.

# compound, discreteLabel
data = [
    ("COC(=O)c1nc(NC(=O)c2ccccc2)n[nH]1", "NO"),
    ("Cc1ccc(-c2cnc(C(O)c3cc(Cl)cc(Cl)c3)[nH]2)cc1 (stereo not given)", "NO"),
]

Query: Check the results log: what was the call for "O=C(OCc1cn([C@@H]2C[C@H](c3ccc(Cl)cc3)N(Cc3cccs3)C[C@H]2O)nn1)c1ccccc1" ?
Response: NO

Query: Check the results log: what was the call for CC(C)N=C1CCCC1C(=S)SSC(=S)C1CCCC1=NC(C)C (stereo not given) ?
Response: YES

Query: Check the results log: what was the call for "O[C@H]1CN(Cc2cccs2)[C@@H](c2ccc(Cl)cc2)C[C@@H]1n1cc(C2CC2)nn1" ?
Response: NO
